FYI, the data here is from the Human Domainome abundance scans (Beltran et al. 2025).

Please respond with reported abundance fitness for every item in the list.
B1: DnaJ homolog subfamily C member 5, residues 16 to 77; numbered along this chain, Q9H3Z4 (parent)
chain: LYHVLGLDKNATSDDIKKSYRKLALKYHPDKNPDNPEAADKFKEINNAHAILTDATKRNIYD

Variants of: B1
Experiment: abundance fitness (aPCA) (normalised: wild type 0, dead -1); higher = more abundant; growth selection in yeast, the domain comes from the species named
Conditions: Homo sapiens
Returns: the value as a bare number; no unit string appended.

Data request: Dear colleague, I am looking for the recorded abundance fitness of the following variant: CYHVLGLDKNATSDDIKKSYRKLALKYHPDKNPDNPEAADKFKEINNAHAILTDATKRNIYD [L1C]
Data returned: -0.284

Data request: Dear colleague, I am looking for the recorded abundance fitness of the following variant: LYHVLGLDKNATSDDIKKSYRKLALKYAPDKNPDNPEAADKFKEINNAHAILTDATKRNIYD [H28A]
Data returned: -0.06

Data request: Dear colleague, I am looking for the recorded abundance fitness of the following variant: LYKVLGLDKNATSDDIKKSYRKLALKYHPDKNPDNPEAADKFKEINNAHAILTDATKRNIYD [H3K]
Data returned: -0.133

Data request: Dear colleague, I am looking for the recorded abundance fitness of the following variant: LYQVLGLDKNATSDDIKKSYRKLALKYHPDKNPDNPEAADKFKEINNAHAILTDATKRNIYD [H3Q]
Data returned: -0.116

Data request: Dear colleague, I am looking for the recorded abundance fitness of the following variant: LYHVEGLDKNATSDDIKKSYRKLALKYHPDKNPDNPEAADKFKEINNAHAILTDATKRNIYD [L5E]
Data returned: -0.14

Data request: Dear colleague, I am looking for the recorded abundance fitness of the following variant: LYHVLGLDKNATSDDIKKSYRKLALKYHPDKNPDNPEAADKFKEINNAHAILTDATKMNIYD [R58M]
Data returned: -0.471

Data request: Dear colleague, I am looking for the recorded abundance fitness of the following variant: LYHVLGLDKNATSDDIKKSYRKLALKYHVDKNPDNPEAADKFKEINNAHAILTDATKRNIYD [P29V]
Data returned: -0.414

Data request: Dear colleague, I am looking for the recorded abundance fitness of the following variant: LYHVLGLDKNATSDDIKKSYRKLALKYHPDKNPDNPEAADKFKEINNAHAIDTDATKRNIYD [L52D]
Data returned: -0.381

Data request: Dear colleague, I am looking for the recorded abundance fitness of the following variant: LYHVLGLDKNATSDDIKKSYRKDALKYHPDKNPDNPEAADKFKEINNAHAILTDATKRNIYD [L23D]
Data returned: -0.129

Data request: Dear colleague, I am looking for the recorded abundance fitness of the following variant: LYHMLGLDKNATSDDIKKSYRKLALKYHPDKNPDNPEAADKFKEINNAHAILTDATKRNIYD [V4M]
Data returned: -0.078

Data request: Dear colleague, I am looking for the recorded abundance fitness of the following variant: LYHVLGLDKNATSDDIKKSYRKLALKYHPDKNPDNPEAADKFKEINNAHVILTDATKRNIYD [A50V]
Data returned: -0.19

Data request: Dear colleague, I am looking for the recorded abundance fitness of the following variant: LYHVLGLDKNATSDDIKKSYRKLALKYHPDKNPDNPEAADKFKEIINAHAILTDATKRNIYD [N46I]
Data returned: -0.178

Data request: Dear colleague, I am looking for the recorded abundance fitness of the following variant: LYHVLGLDKNATSDDIKKSYRKMALKYHPDKNPDNPEAADKFKEINNAHAILTDATKRNIYD [L23M]
Data returned: -0.209

Data request: Dear colleague, I am looking for the recorded abundance fitness of the following variant: LYHVLGLDKNATSDDIKKSYRKLALKYHPDKNPDNPEAADKFKEINNAHAILTMATKRNIYD [D54M]
Data returned: -0.634

Data request: Dear colleague, I am looking for the recorded abundance fitness of the following variant: LYHVLGLDKNATSDDIKKSYRKLALKYFPDKNPDNPEAADKFKEINNAHAILTDATKRNIYD [H28F]
Data returned: -0.541

Data request: Dear colleague, I am looking for the recorded abundance fitness of the following variant: LYHVLGLDKNATSDDIKKSYRKLWLKYHPDKNPDNPEAADKFKEINNAHAILTDATKRNIYD [A24W]
Data returned: 0.245

Data request: Dear colleague, I am looking for the recorded abundance fitness of the following variant: LYHVLGLDKNATSDDIKKSYRKLALKYHPDKNPDNPEAADKFKEINNAHAILTDATKRNIYK [D62K]
Data returned: -0.661

Data request: Dear colleague, I am looking for the recorded abundance fitness of the following variant: LYHVLGLWKNATSDDIKKSYRKLALKYHPDKNPDNPEAADKFKEINNAHAILTDATKRNIYD [D8W]
Data returned: -0.648

Data request: Dear colleague, I am looking for the recorded abundance fitness of the following variant: LYHVLGLDKNATSDDIKKSYRKLALKYHPDNNPDNPEAADKFKEINNAHAILTDATKRNIYD [K31N]
Data returned: -0.452

Data request: Dear colleague, I am looking for the recorded abundance fitness of the following variant: LYHVLGCDKNATSDDIKKSYRKLALKYHPDKNPDNPEAADKFKEINNAHAILTDATKRNIYD [L7C]
Data returned: -0.149

Data request: Dear colleague, I am looking for the recorded abundance fitness of the following variant: LYHVLGLDKNATSDDIKKSYRKLALKYHPDKNDDNPEAADKFKEINNAHAILTDATKRNIYD [P33D]
Data returned: -0.16

Data request: Dear colleague, I am looking for the recorded abundance fitness of the following variant: LYHVLGWDKNATSDDIKKSYRKLALKYHPDKNPDNPEAADKFKEINNAHAILTDATKRNIYD [L7W]
Data returned: -0.949
